# test-system: α-amylase (porcine pancreas source) (Sus scrofa, UniProt P00690)
# Construct: A porcine pancreas source of α-amylase (50 µL), 25 µL of the samples; from tissue; host or cells: porcine pancreas
# Sequence (P00690 16-511): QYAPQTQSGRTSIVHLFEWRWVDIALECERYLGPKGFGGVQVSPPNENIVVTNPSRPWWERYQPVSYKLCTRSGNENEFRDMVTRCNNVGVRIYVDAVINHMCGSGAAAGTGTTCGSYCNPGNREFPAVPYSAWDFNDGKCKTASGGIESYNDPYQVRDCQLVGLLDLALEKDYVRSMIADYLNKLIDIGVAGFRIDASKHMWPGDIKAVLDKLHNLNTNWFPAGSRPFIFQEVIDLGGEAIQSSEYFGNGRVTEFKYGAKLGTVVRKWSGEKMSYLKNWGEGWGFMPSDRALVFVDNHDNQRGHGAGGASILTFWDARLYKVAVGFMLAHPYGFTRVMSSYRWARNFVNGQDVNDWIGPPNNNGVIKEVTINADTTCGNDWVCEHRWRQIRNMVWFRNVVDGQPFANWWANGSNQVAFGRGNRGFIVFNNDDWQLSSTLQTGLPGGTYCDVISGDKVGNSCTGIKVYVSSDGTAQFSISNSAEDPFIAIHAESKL
# assay: α-Amylase inhibitory assay (starch iodine protocol)
# Type: biochemical
# measurement-context: read-out: IC50 ± SEM (α-amylase); Table 2, repeats Table 1; unit inferred
Provide the recorded IC50 for the entries that follow.

These solved cases illustrate the format of a correct answer.
Challenge: Bench note: what IC50 did O=C(O)C1=C[C@@H](O)[C@@H](O)[C@H](O)C1 show?
Response given: > 1150 µM

Challenge: Bench note: what IC50 did CC1(C)CC[C@]2(C(=O)O[C@@H]3O[C@H](CO)[C@@H](O)[C@H](O)[C@H]3O)CC[C@]3(C)C(=CC[C@@H]4[C@@]5(C)C[C@@H](O)[C@H](O)[C@@](C)(CO)[C@@H]5CC[C@]43C)[C@@H]2[C@@H]1O [Compound 10, arjunglucoside I] show?
Response given: > 300 µM

Challenge: Bench note: what IC50 did CC1(C)CCC2(C(=O)OC3OC(CO)C(O)C(O)C3O)CCC3(C)C(=CCC4C5(C)CC(O)C(O)C(C)(C)C5CCC43C)C2C1O (stereo not shown) [Compound 9, 24-deoxysericoside] show?
Response given: > 307 µM

Now look at this one.
Challenge: Bench note: what IC50 did CC1(C)CC[C@]2(C(=O)O[C@@H]3O[C@H](CO)[C@@H](O)[C@H](O)[C@H]3O)CC[C@]3(C)C(=CC[C@@H]4[C@@]5(C)C[C@@H](O)[C@H](O)[C@@](C)(CO)[C@@H]5[C@H](O)C[C@]43C)[C@@H]2C1 [Compound 11, chebuloside II] show?
Response given: > 300 µM

---

# test-system: α-amylase (porcine pancreas source) (Sus scrofa)
# Construct: A porcine pancreas source of α-amylase (50 µL), 25 µL of the samples; from tissue; host or cells: porcine pancreas
# Sequence (P00690 16-511): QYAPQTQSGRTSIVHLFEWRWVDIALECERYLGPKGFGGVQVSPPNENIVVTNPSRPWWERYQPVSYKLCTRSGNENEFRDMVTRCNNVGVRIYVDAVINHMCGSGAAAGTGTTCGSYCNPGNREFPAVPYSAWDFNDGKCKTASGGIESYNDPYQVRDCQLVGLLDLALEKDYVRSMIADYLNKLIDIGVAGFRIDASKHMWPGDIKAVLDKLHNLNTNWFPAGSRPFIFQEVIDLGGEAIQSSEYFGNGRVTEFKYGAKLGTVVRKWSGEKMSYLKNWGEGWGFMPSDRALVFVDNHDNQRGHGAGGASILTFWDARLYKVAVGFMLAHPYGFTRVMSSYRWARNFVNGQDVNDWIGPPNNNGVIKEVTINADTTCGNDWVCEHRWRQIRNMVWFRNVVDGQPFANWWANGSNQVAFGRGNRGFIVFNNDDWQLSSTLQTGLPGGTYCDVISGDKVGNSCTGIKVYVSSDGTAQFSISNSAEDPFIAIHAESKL
# assay: α-Amylase inhibitory assay (starch iodine protocol)
# Assay type: biochemical
endpoint-name: IC50 (µM)
Answers are plain numbers, in µM.

These solved cases illustrate the format of a correct answer.
Challenge: Bench note: what IC50 did COc1cc2c(=O)oc3c(OC)c(O[C@@H]4OC[C@@H](O)[C@H](O)[C@H]4O)cc4c(=O)oc(c1OC)c2c34 show?
Response given: 216

Challenge: Bench note: what IC50 did CC1(C)CC[C@]2(C(=O)O)CC[C@]3(C)C(=CC[C@@H]4[C@@]5(C)C[C@@H](O)[C@H](O)[C@@](C)(CO)[C@@H]5CC[C@]43C)[C@@H]2[C@@H]1O show?
Response given: 369

Challenge: Bench note: what IC50 did COc1c(O)cc2c(=O)oc3c(OC)c(O[C@@H]4O[C@H](CO)[C@@H](O)[C@H](O)[C@H]4O)cc4c(=O)oc1c2c34 show?
Response given: 185

Now look at this one.
Challenge: Bench note: what IC50 did CC1(C)CC[C@]2(C(=O)O)CC[C@]3(C)C(=CC[C@@H]4[C@@]5(C)C[C@@H](O)[C@H](O)[C@@](C)(CO)[C@@H]5[C@H](O)C[C@]43C)[C@@H]2C1 show?
Response given: 289

---

Provide the recorded IC50 for the entries that follow.
# test-system: AChE (electric eel source) (Electrophorus electricus, UniProt O42275)
# Sequence (O42275 24-633): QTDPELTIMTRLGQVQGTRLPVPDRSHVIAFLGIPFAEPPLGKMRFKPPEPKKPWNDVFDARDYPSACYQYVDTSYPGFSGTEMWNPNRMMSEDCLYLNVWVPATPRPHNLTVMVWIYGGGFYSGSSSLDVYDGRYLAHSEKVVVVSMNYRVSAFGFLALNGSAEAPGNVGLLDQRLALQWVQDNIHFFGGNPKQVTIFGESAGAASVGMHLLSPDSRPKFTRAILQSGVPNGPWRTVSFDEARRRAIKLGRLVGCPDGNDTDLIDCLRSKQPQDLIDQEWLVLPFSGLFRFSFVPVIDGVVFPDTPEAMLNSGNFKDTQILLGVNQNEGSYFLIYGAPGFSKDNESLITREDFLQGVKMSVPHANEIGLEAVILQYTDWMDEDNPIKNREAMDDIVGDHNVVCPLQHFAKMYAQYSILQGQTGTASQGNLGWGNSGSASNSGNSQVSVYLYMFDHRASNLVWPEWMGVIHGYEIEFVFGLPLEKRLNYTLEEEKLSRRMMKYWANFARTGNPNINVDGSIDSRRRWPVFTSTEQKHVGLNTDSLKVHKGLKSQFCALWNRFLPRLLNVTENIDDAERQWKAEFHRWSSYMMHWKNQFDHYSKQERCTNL
# assay: biochemical
# measurement-context: Table 3, repeats Table 1; unit inferred; read-out: IC50 ± SEM (Acetylcholinesterase)

These solved cases illustrate the format of a correct answer.
Challenge: Bench note: what IC50 did CC1OC(Oc2c(-c3cc(O)c(O)c(O)c3)oc3cc(O)cc(O)c3c2=O)C(O)C(O)C1O (stereo not drawn) [Compound 5, myricetin-3-O-rhamnoside] show?
Response given: > 215 µM

Challenge: Bench note: what IC50 did CC1(C)CC[C@]2(C(=O)O[C@@H]3O[C@H](CO)[C@@H](O)[C@H](O)[C@H]3O)CC[C@]3(C)C(=CC[C@@H]4[C@@]5(C)C[C@@H](O)[C@H](O)[C@@](C)(CO)[C@@H]5[C@H](O)C[C@]43C)[C@@H]2C1 [Compound 11, chebuloside II] show?
Response given: > 150 µM

Now look at this one.
Challenge: Bench note: what IC50 did CC1(C)CCC2(C(=O)OC3OC(CO)C(O)C(O)C3O)CCC3(C)C(=CCC4C5(C)CC(O)C(O)C(C)(C)C5CCC43C)C2C1O (stereo not drawn) [Compound 9, 24-deoxysericoside] show?
Response given: > 154 µM

---

# test-system: AChE (electric eel source) (Electrophorus electricus)
# assay: biochemical
# measurement-context: evaluated up to 100 µg/mL; means ± SEM of three measurements; read-out: AChE IC50 (converted)
endpoint-name: IC50 (µM)
Numbers only, in µM.

Challenge: Please tell me: IC50 of O=C(O)C1=C[C@@H](O)[C@@H](O)[C@H](O)C1 , system AChE (electric eel source) (Electrophorus electricus)?
Response given: 317

Challenge: Please tell me: IC50 of COc1cc2c(=O)oc3c(OC)c(O[C@@H]4O[C@H](CO)[C@@H](O)[C@H](O)[C@H]4O)cc4c(=O)oc(c1OC)c2c34 , system AChE (electric eel source) (Electrophorus electricus)?
Response given: 118

Challenge: Please tell me: IC50 of CC1(C)CC[C@]2(C(=O)O[C@@H]3O[C@H](CO)[C@@H](O)[C@H](O)[C@H]3O)CC[C@]3(C)C(=CC[C@@H]4[C@@]5(C)C[C@@H](O)[C@H](O)[C@@](C)(CO)[C@@H]5CC[C@]43C)[C@@H]2[C@@H]1O [Compound 10, arjunglucoside I] , system AChE (electric eel source) (Electrophorus electricus)?
Response given: 148

Challenge: Please tell me: IC50 of COc1c(O)cc2c(=O)oc3c(OC)c(O[C@@H]4O[C@H](CO)[C@@H](O)[C@H](O)[C@H]4O)cc4c(=O)oc1c2c34 , system AChE (electric eel source) (Electrophorus electricus)?
Response given: 129

Now look at this one.
Challenge: Please tell me: IC50 of COc1c(O)cc2c(=O)oc3c(OC)c(O)cc4c(=O)oc1c2c34 , system AChE (electric eel source) (Electrophorus electricus)?
Response given: 142

---

# test-system: α-glucosidase (fungal source from Saccharomyces cerevisiae)
# assay: α-Glucosidase inhibitory assay (PNPG)
# Format: biochemical
# measurement-context: maximum concentration 200 µg/mL; means ± SEM of three measurements
Provide the recorded α-Glucosidase IC50 for the entries that follow.
Numbers only, in µg/mL.

Challenge: Bench note: what α-Glucosidase IC50 did CC1(C)CC[C@]2(C(=O)O)CC[C@]3(C)C(=CC[C@@H]4[C@@]5(C)C[C@@H](O)[C@H](O)[C@@](C)(CO)[C@@H]5CC[C@]43C)[C@@H]2[C@@H]1O show?
Response given: 192.17

Continuing:
Challenge: Bench note: what α-Glucosidase IC50 did COc1cc2c(=O)oc3c(OC)c(O[C@@H]4OC[C@@H](O)[C@H](O)[C@H]4O)cc4c(=O)oc(c1OC)c2c34 show?
Response given: 121.51
